test system: HOP-62 NSCLC; assay: NCI tumour cell line growth inhibition, 48 h
observationType: TGI

Known TGI results, listed for orientation:
molecule: CCOC(=O)C(CNc1ccc(O)cc1)NC(=O)c1ccccc1 (configuration not stated)
TGI: > 100 µM
//
molecule: Cc1cccc2c(N)c3cccc(C(=O)NCC[N+]4(Cc5ccc([N+](=O)[O-])cc5)CCOCC4)c3nc12
TGI: > 100 µM
//
molecule: O=c1cc(-c2ccccc2)oc2cc(OC/C(=N/O)c3ccc(F)cc3)ccc12
TGI: > 50 µM
//
molecule: COc1cc(C2C3=C(COC3=O)N(CCO)c3cc4c(cc32)OCO4)cc(OC)c1O (configuration not stated)
TGI: > 50 µM
//
molecule: O=C(Nc1ccccc1O)c1ccc(NS(=O)(=O)c2cccc3cccnc23)cc1
TGI: 7.33 µM
//
molecule: C=C(C)C(=O)O[C@@H]1C/C(C)=C\[C@H](OC(C)=O)C[C@](C)(O)/C=C2/OC(=O)C(COC(C)=O)=C21
TGI: > 100 µM

Please fill in: TGI reported for C/C=C/COC(=O)CO[N+](=O)[O-] = > 100 µM

Please fill in: TGI reported for NC(=S)N=Nc1c(O)c2ccccc2c2ccccc12 = 7.87 µM

Please fill in: TGI reported for O=C(CCc1nnc2s/c(=C\c3ccccc3Cl)c(=O)n12)Nc1cc(Cl)ccc1Cl = > 100 µM

Please fill in: TGI reported for CC/C=C/C[C@H](O)[C@H]1C[C@H]2O[C@H](CC(=O)OC)C[C@H]2O1 = > 100 µM

Please fill in: TGI reported for CN(C)c1ccc(/C=c2/c3ccccc3n3c2c2cc(F)ccc2[n+]3C)cc1 = 26.4 µM

Please fill in: TGI reported for CN1CCN(Cc2ccc3c(NNC(=O)c4ccccc4)nc4cc(F)ccc4n23)CC1 = > 100 µM

###

test system: DMS 114 small cell lung; assay: NCI tumour cell line growth inhibition, 48 h
observationType: TGI

Known TGI results, listed for orientation:
compound: COc1ccc2c(c1)c(=O)c1c(NCCN(C)C)ccc3nnn2c31
TGI: 19.4 µM
//
compound: C=CCOC(=O)C1CCC(=O)N1C(=O)C(Cl)Cl (stereo not drawn)
TGI: > 100 µM
//
compound: CCCCCCCCCCCCCC(=O)CSCCNC(=O)CCNC(=O)[C@@H](O)C(C)(C)COP(=O)(O)OP(=O)(O)OCC1OC(n2cnc3c(N)ncnc32)C(O)C1OP(=O)(O)O (stereo partly drawn)
TGI: 33.3 µM
//
compound: CC1NC(=O)C2=C1C(N)=NC(=O)C2 (stereo not drawn)
TGI: > 100 µM
//
compound: CC(=O)N(O)Cc1ccccc1
TGI: > 100 µM
//
compound: O=c1[nH]c(=O)n(C2OC(CO)C(O)C2O)cc1OCC(F)(F)F (stereo not drawn)
TGI: > 100 µM
//
compound: OC12c3ccccc3C3CCC4(OCCO4)C3C1c1ccccc12 (stereo not drawn)
TGI: > 100 µM
//
compound: Cn1c(=O)c2[nH]cnc2n(CC(N)=O)c1=O
TGI: > 100 µM

Please fill in: TGI reported for COc1ccc(C(=O)N/N=C/c2c(C)n(C)n(-c3ccccc3)c2=O)cc1 = > 100 µM

Please fill in: TGI reported for C#CCN(C(=O)C(F)(F)F)c1ccc(C(=O)c2ccc(N(CC#C)C(=O)C(F)(F)F)cc2)cc1 = 55.1 µM

Please fill in: TGI reported for CN(C)CCNC(=O)c1cccc2ccc(-c3ccc(-c4ccccc4)cc3)nc12 = 3.07 µM

Please fill in: TGI reported for COc1cc2c(cc1C1=NC(C)(C)CO1)OCO2 = > 100 µM

Please fill in: TGI reported for COc1ccc(C2C3CCCC(C3=O)C(c3ccc(OC)cc3)N2N=O)cc1 (stereo not drawn) = 47.9 µM

Recorded values, source PubChem BioAssay (NCI).
